Task for the reader: assign each of the following molecules its reported percentage damage caused to the plant, ECHCG.
Test system: Echinochloa crus-galli (ECHCG)
Test: Pre-Emergence Test (herbicidal, glasshouse pots)
Format: in vivo
Details: rate 1000 g/ha, evaluated after 13 days, five-point scale

Give percentage damage caused to the plant, ECHCG for the following molecule: CCn1c(Nc2ccc(C)c(C(F)(F)F)c2)cc(=O)c(C(=O)O)c1-c1ccc(Cl)c(Cl)c1
1 (1=0-20%)

Quote percentage damage caused to the plant, ECHCG reported for CCn1c(Sc2ccc(F)cc2)cc(=O)c(C(=O)O)c1-c1ccc(Cl)c(Cl)c1 please.
2 (2=21-40%)

Indicate the recorded percentage damage caused to the plant, ECHCG value for this molecule: CCn1c(Oc2ccc(OC(F)(F)F)cc2)cc(=O)c(C(=O)O)c1-c1ccc(Cl)c(Cl)c1
5 (5=81-100%)

Please indicate percentage damage caused to the plant, ECHCG recorded for CCn1c(Oc2cc(F)ccc2Cl)cc(=O)c(C(=O)O)c1-c1ccc(Cl)c(Cl)c1
5 (5=81-100%)

Tell me percentage damage caused to the plant, ECHCG reported for CCn1c(Oc2ccc(OC)cc2)cc(=O)c(C(=O)O)c1-c1ccc(Cl)c(Cl)c1
0

Using the record for CCn1c(Oc2cccc(Cl)c2)cc(=O)c(C(=O)O)c1-c1ccc(Cl)c(Cl)c1 , state its measured percentage damage caused to the plant, ECHCG.
4 (4=61-80%)

Please give measured percentage damage caused to the plant, ECHCG of the following entry: CCn1c(Oc2ccc(Cl)c(Cl)c2)cc(=O)c(C(=O)O)c1-c1ccc(Cl)c(Cl)c1
0

Give percentage damage caused to the plant, ECHCG for CCn1c(Oc2ccc(F)c(F)c2)cc(=O)c(C(=O)O)c1-c1ccc(Cl)c(Cl)c1
4 (4=61-80%)

Annotate the molecule CCn1c(Oc2cncc(Cl)c2)cc(=O)c(C(=O)O)c1-c1ccc(Cl)c(Cl)c1 with its measured percentage damage caused to the plant, ECHCG.
4 (4=61-80%)

Look up and state reported percentage damage caused to the plant, ECHCG for CCn1c(Oc2ccccc2F)cc(=O)c(C(=O)O)c1-c1ccc(Cl)c(Cl)c1
4 (4=61-80%)

Return the recorded percentage damage caused to the plant, ECHCG value; entry: CCn1c(Oc2cccnc2F)cc(=O)c(C(=O)O)c1-c1ccc(Cl)c(Cl)c1
4 (4=61-80%)

Input CCn1c(Oc2cc(F)cc(F)c2)cc(=O)c(C(=O)O)c1-c1ccc(Cl)c(Cl)c1 , output reported percentage damage caused to the plant, ECHCG.
4 (4=61-80%)

# return recorded percentage damage caused to the plant, ECHCG for entry CCn1c(Oc2ccc(F)cc2)cc(=O)c(C(=O)O)c1-c1ccc(Cl)c(Cl)c1
5 (5=81-100%)

Quickly give me recorded percentage damage caused to the plant, ECHCG for CCn1c(Oc2ccc(OC)c(OC)c2)cc(=O)c(C(=O)O)c1-c1ccc(Cl)c(Cl)c1
2 (2=21-40%)

Note percentage damage caused to the plant, ECHCG for the molecule shown: CCn1c(Oc2ccc(Cl)cc2OC)cc(=O)c(C(=O)O)c1-c1ccc(Cl)c(Cl)c1
0

// Input: CCn1c(Oc2ccc(Cl)cc2)cc(=O)c(C(=O)O)c1-c1ccc(Cl)c(Cl)c1 . Output its percentage damage caused to the plant, ECHCG only.
4 (4=61-80%)

###

Tested on: Amaranthus retoflexus (AMARE)
Assay: Pre-Emergence Test (herbicidal, glasshouse pots)
Type: in vivo
Conditions: rate 250 g/ha, evaluated after 13 days, five-point scale
Provide the recorded percentage damage caused to the plant, AMARE for the entries that follow.

Look up and report measured percentage damage caused to the plant, AMARE (Amaranthus retoflexus (AMARE)) for the following compound: CCn1c(Oc2ccc(F)c(F)c2)cc(=O)c(C(=O)O)c1-c1ccc(C#N)c(Cl)c1
2 (2=21-40%)

Report percentage damage caused to the plant, AMARE under test system Amaranthus retoflexus (AMARE) for C/C=C(\C)COc1cc(=O)c(C(=O)O)c(-c2ccc(Cl)c(Cl)c2)n1CC .
1 (1=0-20%)

State percentage damage caused to the plant, AMARE (Amaranthus retoflexus (AMARE)) of CCn1cc(Oc2cc(=O)c(C(=O)O)c(-c3ccc(Cl)c(Cl)c3)n2CC)cn1 .
2 (2=21-40%)

Give Amaranthus retoflexus (AMARE) percentage damage caused to the plant, AMARE for the following compound: CCn1c(Oc2cc(C3CC3)on2)cc(=O)c(C(=O)O)c1-c1ccc(Cl)c(Cl)c1
1 (1=0-20%)

Check Amaranthus retoflexus (AMARE) data and give percentage damage caused to the plant, AMARE for CCn1c(Oc2ccc3nccnc3c2)cc(=O)c(C(=O)O)c1-c1ccc(Cl)c(Cl)c1 .
2 (2=21-40%)

Report percentage damage caused to the plant, AMARE under test system Amaranthus retoflexus (AMARE) for CCn1c(Oc2ccc(C(F)(F)F)cc2)cc(=O)c(C(=O)O)c1-c1ccc(Cl)c(Cl)c1 .
1 (1=0-20%)

Lab note: Amaranthus retoflexus (AMARE) assay, enter percentage damage caused to the plant, AMARE for CCn1c(Nc2ccc(F)cc2)cc(=O)c(C(=O)O)c1-c1ccc(Cl)c(Cl)c1 here
0

Name the value of percentage damage caused to the plant, AMARE reported for CCc1cc(Oc2cc(=O)c(C(=O)O)c(-c3ccc(Cl)c(Cl)c3)n2CC)no1 when tested on Amaranthus retoflexus (AMARE).
1 (1=0-20%)

Enter percentage damage caused to the plant, AMARE (test system Amaranthus retoflexus (AMARE)) for CCn1c(Oc2ccc(C)c(F)c2)cc(=O)c(C(=O)O)c1-c1ccc(Cl)c(Cl)c1
1 (1=0-20%)

Print Amaranthus retoflexus (AMARE) percentage damage caused to the plant, AMARE for CCn1c(Oc2ccnc(Cl)c2)cc(=O)c(C(=O)O)c1-c1ccc(Cl)c(Cl)c1 .
3 (3=41-60%)

Please tell me the measured percentage damage caused to the plant, AMARE for CCn1c(Oc2cc(Cl)n(C)n2)cc(=O)c(C(=O)O)c1-c1ccc(Cl)c(Cl)c1 ; system: Amaranthus retoflexus (AMARE).
2 (2=21-40%)

Please indicate recorded percentage damage caused to the plant, AMARE of CCn1c(Oc2ccc(F)nc2)cc(=O)c(C(=O)O)c1-c1ccc(Cl)c(Cl)c1 measured with Amaranthus retoflexus (AMARE).
3 (3=41-60%)

Check Amaranthus retoflexus (AMARE) data and give percentage damage caused to the plant, AMARE for CCn1c(Oc2ccc(S(C)(=O)=O)cc2)cc(=O)c(C(=O)O)c1-c1ccc(Cl)c(Cl)c1 .
1 (1=0-20%)

Provide measured percentage damage caused to the plant, AMARE on Amaranthus retoflexus (AMARE) for CCn1c(Oc2ccc(Cl)cn2)cc(=O)c(C(=O)O)c1-c1ccc(Cl)c(Cl)c1 please.
3 (3=41-60%)

Provide percentage damage caused to the plant, AMARE, recorded with Amaranthus retoflexus (AMARE), of CCn1c(Oc2cnsn2)cc(=O)c(C(=O)O)c1-c1ccc(Cl)c(Cl)c1
1 (1=0-20%)

Fill: percentage damage caused to the plant, AMARE (Amaranthus retoflexus (AMARE)) for this compound CCn1c(Oc2ccc(C)cc2)cc(=O)c(C(=O)O)c1-c1ccc(Cl)c(Cl)c1
2 (2=21-40%)

Provide measured percentage damage caused to the plant, AMARE on Amaranthus retoflexus (AMARE) for CCn1c(OC2CC2)cc(=O)c(C(=O)O)c1-c1ccc(Cl)c(Cl)c1 please.
2 (2=21-40%)

###

Field: Post-Emergence Test ECHCG percentage damage (five-point scale). Provide a value for each of the compounds that follow.
Tested on: Echinochloa crus-galli (ECHCG)
Assay: Post-Emergence Test (herbicidal, glasshouse pots)
Assay type: in vivo
Details: rate 1000 g/ha; evaluated after 13 days

# return recorded Post-Emergence Test ECHCG percentage damage (five-point scale) for entry CCn1c(Oc2ccc(Cl)c(Cl)c2)cc(=O)c(C(=O)O)c1-c1ccc(Cl)c(Cl)c1 [Compound 18]
0

Please look at this compound and report its Post-Emergence Test ECHCG percentage damage (five-point scale): CCn1c(Oc2ccc(Cl)cc2Cl)cc(=O)c(C(=O)O)c1-c1ccc(Cl)c(Cl)c1 [Compound 24]
0

In one line, give reported Post-Emergence Test ECHCG percentage damage (five-point scale) of the entry CCn1c(Oc2ccc(OC)cc2)cc(=O)c(C(=O)O)c1-c1ccc(Cl)c(Cl)c1 [Compound 11] .
1 (1=0-20%)

Tell me Post-Emergence Test ECHCG percentage damage (five-point scale) reported for CCn1c(Nc2cccc(Cl)n2)cc(=O)c(C(=O)O)c1-c1ccc(Cl)c(Cl)c1 [Compound 30]
0

Check the records and state Post-Emergence Test ECHCG percentage damage (five-point scale) for CCn1c(Oc2cc(Cl)cc(Cl)c2)cc(=O)c(C(=O)O)c1-c1ccc(Cl)c(Cl)c1 [Compound 16]
1 (1=0-20%)

For the compound CCn1c(Nc2cccc(C)n2)cc(=O)c(C(=O)O)c1-c1ccc(Cl)c(Cl)c1 [Compound 32] , report Post-Emergence Test ECHCG percentage damage (five-point scale).
2 (2=21-40%)

Supply reported Post-Emergence Test ECHCG percentage damage (five-point scale) belonging to this compound: CCn1c(Oc2cncc(Cl)c2)cc(=O)c(C(=O)O)c1-c1ccc(Cl)c(Cl)c1 [Compound 13]
5 (5=81-100%)

Give me measured Post-Emergence Test ECHCG percentage damage (five-point scale), please, for this compound: CCn1c(Oc2ccccc2F)cc(=O)c(C(=O)O)c1-c1ccc(Cl)c(Cl)c1 [Compound 3]
4 (4=61-80%)

State its Post-Emergence Test ECHCG percentage damage (five-point scale): CCn1c(Oc2cc(F)cc(F)c2)cc(=O)c(C(=O)O)c1-c1ccc(Cl)c(Cl)c1 [Compound 15]
3 (3=41-60%)

Quick one: give measured Post-Emergence Test ECHCG percentage damage (five-point scale) for CCn1c(Oc2ccc(Cl)cc2)cc(=O)c(C(=O)O)c1-c1ccc(Cl)c(Cl)c1 [Compound 19]
3 (3=41-60%)

Specify Post-Emergence Test ECHCG percentage damage (five-point scale) for CCn1c(Nc2ncc(F)cc2F)cc(=O)c(C(=O)O)c1-c1ccc(Cl)c(Cl)c1 [Compound 31] and stop.
1 (1=0-20%)

// fetch Post-Emergence Test ECHCG percentage damage (five-point scale) given entry CCn1c(Oc2cc(F)ccc2Cl)cc(=O)c(C(=O)O)c1-c1ccc(Cl)c(Cl)c1 [Compound 35]
4 (4=61-80%)

Give me measured Post-Emergence Test ECHCG percentage damage (five-point scale), please, for this compound: CCn1c(Nc2ccc(Cl)cc2F)cc(=O)c(C(=O)O)c1-c1ccc(Cl)c(Cl)c1 [Compound 29]
0

For the compound CCn1c(Oc2ccc(Cl)cc2OC)cc(=O)c(C(=O)O)c1-c1ccc(Cl)c(Cl)c1 [Compound 26] , give its reported Post-Emergence Test ECHCG percentage damage (five-point scale).
0

Identify Post-Emergence Test ECHCG percentage damage (five-point scale) associated with the compound CCn1c(Sc2ccc(F)cc2)cc(=O)c(C(=O)O)c1-c1ccc(Cl)c(Cl)c1 [Compound 10]
2 (2=21-40%)

Attribution: patent US20250324971A1
